- METHOD NOTES: BSK_LPS_SRB: Viability Assessment in the BioMAP Diversity Plus: LPS Assay (AID 2283079);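 further: total protein by sulforhodamine B absorbance as a cytotoxicity measure; measured one day after compound addition; fitted in both directions against DMSO so loss or gain of signal counts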
- APPLIED CONDITIONS: primary human HUVEC with PBMC
Active and inactive are the calls of the source. How the source made its calls: active means hit-call score of the fitted dose curve at least 0.9, where 1 is the maximum; inactive means score below 0.9.
Outcome codes: yes (1) for active, no (0) for inactive

> print(dat)
                                 compound      cat
1  CCCCCCCCC(CO)CCCCCC (stereo not given)   no (0)
2                                CCCCCCCO   no (0)
3                   CC(C)C(=O)OCCc1ccccc1   no (0)
4                C=C(C)C(=O)OCCCCCCCCCCCC   no (0)
5          Oc1ccc(/C=C/c2cc(O)cc(O)c2)cc1  yes (1)

* * *

- TARGET UNDER TEST: Estrogen receptor beta (Homo sapiens) (UniProt Q92731)
- Sequence (Q92731 whole entry, looked up, the tested form may be a part): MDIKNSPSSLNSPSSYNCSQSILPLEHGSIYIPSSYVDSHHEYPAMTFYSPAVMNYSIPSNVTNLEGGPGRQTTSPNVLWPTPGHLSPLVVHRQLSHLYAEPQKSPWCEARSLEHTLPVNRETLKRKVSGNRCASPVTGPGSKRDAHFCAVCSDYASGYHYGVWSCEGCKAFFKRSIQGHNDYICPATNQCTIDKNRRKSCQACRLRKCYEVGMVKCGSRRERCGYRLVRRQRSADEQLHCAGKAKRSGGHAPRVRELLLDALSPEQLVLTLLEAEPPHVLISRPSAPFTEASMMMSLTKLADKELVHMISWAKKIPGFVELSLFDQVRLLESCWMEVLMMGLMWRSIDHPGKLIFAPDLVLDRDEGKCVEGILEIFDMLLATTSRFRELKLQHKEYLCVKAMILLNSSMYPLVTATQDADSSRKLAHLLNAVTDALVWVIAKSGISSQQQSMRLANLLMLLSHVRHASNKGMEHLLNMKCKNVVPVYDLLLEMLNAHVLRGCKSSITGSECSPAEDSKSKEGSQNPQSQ
- METHOD NOTES: OT_ER_ERbERb_1440: Odyssey Thera (OT) 24-hour HEK293T Protein-Complementation Assay for Estrogen Receptor-beta/-beta Homodimer (AID 2283380);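 further: fluorescence gain from ER beta LBD homodimer complementation read by laser scanning cytometry; scored as signal increase over DMSO baseline for both agonists and antagonists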
Active and inactive are the calls of the source. Rule for the calls: active = hit-call score of the fitted dose curve at least 0.9, where 1 is the maximum; inconclusive = response in the unintended direction; inactive = score below 0.9.
MEASURE: AC50

> print(dat)
                                    compound    observed.value
 1  C=C1C[C@H]2[C@@H]3C=C(C)C4=CC(=O)CC[C@]4(C)[C@H]3CC[C@]2(C)[C@@]1(OC(C)=O)C(C)=O          inactive
 2  O=C(O)C1CCC(C(=O)O)CC1 (stereo unspecified)          inactive
 3                                  C1CNCCN1          inactive
 4                         CCC[Si](OC)(OC)OC          inactive
 5  CC(C)COC(=O)CC(C(=O)OCC(C)C)S(=O)(=O)O (stereo unspecified)          inactive
 6     CN(C)c1ccc2nc3ccc(=[N+](C)C)cc-3sc2c1  14.7 µM (active)
 7               CCCCCCCCCCCC(=O)N(C)CC(=O)O          inactive
 8                  Cc1ccc([N+](=O)[O-])cc1N          inactive
 9      CCOC(=O)C1=NOC(c2ccccc2)(c2ccccc2)C1          inactive
10              COc1ccc(C(=O)c2ccccc2)c(O)c1  57.8 µM (active)
11     CCCC(CC)c1ccccc1 (stereo unspecified)          inactive
12                             CCCC=C(C=O)CC          inactive
13  O=S(=O)(O)c1ccc(N=Nc2c(O)ccc3ccccc23)cc1          inactive
14                             CCCCCC(=O)OCC          inactive
15                          COC(=O)c1ccccc1C          inactive
16    COc1cc(O)c(C(=O)c2ccccc2)cc1S(=O)(=O)O          inactive
17                  Oc1ccc(-c2ccccc2)c(Cl)c1  18.1 µM (active)
18         CCCCC(C=O)CC (stereo unspecified)          inactive
19  C=C[C@@]1(C)CC(=O)[C@]2(O)[C@@]3(C)[C@@H](O)CCC(C)(C)[C@@H]3[C@H](O)[C@H](OC(C)=O)[C@@]2(C)O1  27.4 µM (active)
20                         CCOC(=O)c1ccccc1C  29.4 µM (active)
21                           CCCCCCCCCC(C)=O          inactive
22                          CC(=O)OCc1ccccc1          inactive
23               O=C(O)c1ccc2c(c1)C(=O)OC2=O          inactive
24  CC(=O)OC(C)c1ccccc1 (stereo unspecified)          inactive
25              CCCCCCOC(=O)CCCCC(=O)OCCCCCC          inactive
26                   CC(C)c1ccc(O)c(C(C)C)c1          inactive

* * *

- METHOD NOTES: ACEA_ER_AUC_viability: ACEA Biosciences xCELLigence Real-Time Cell Analysis on Estrogen Receptor Agonism for Viability (AID 2283782);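 further: continuous compound exposure with impedance area under curve over 80 h; hit means loss of impedance signal meaning reduced cell growth or viability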
Records with an inconclusive call do not appear. Active and inactive are the calls of the source. The calls were made as follows: active = hit-call score of the fitted dose curve at least 0.9, where 1 is the maximum; inconclusive = response in the unintended direction; inactive = score below 0.9.
Labels: active, inactive

> print(dat)
                                   compound       cat
1                            c1ccc2cnccc2c1  inactive
2                         CC(=O)OCCc1ccccc1  inactive
3                        CCCCCCOc1ccc(N)cc1    active
4                   O=C(Oc1ccccc1)c1ccccc1O  inactive
5          CCC(C)C(=O)OC (stereo not drawn)  inactive
6  CC(=O)/C=C/C1C(C)=CCCC1(C)C (stereo not drawn)  inactive
7     CN(C)c1ccc2nc3ccc(=[N+](C)C)cc-3sc2c1    active
8                        COC(=O)C=Cc1ccccc1  inactive

* * *

- TARGET UNDER TEST: human Thyroid hormone Receptor alpha (TRa), THRA (gene 7067) (UniProt P10827)
- Sequence (P10827 whole entry, looked up): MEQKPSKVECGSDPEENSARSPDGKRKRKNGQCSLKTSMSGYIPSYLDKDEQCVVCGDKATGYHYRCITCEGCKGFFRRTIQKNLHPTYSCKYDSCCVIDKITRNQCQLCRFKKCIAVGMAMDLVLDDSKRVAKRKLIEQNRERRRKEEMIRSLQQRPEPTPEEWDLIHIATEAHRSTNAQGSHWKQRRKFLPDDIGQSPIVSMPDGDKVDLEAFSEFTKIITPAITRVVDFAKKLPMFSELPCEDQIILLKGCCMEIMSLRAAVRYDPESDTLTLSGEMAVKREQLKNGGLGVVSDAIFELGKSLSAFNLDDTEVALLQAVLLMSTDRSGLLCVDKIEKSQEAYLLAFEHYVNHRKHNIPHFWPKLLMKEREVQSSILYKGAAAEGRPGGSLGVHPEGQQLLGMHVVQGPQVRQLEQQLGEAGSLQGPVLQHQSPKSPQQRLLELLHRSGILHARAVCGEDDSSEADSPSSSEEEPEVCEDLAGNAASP
- METHOD NOTES: ATG_hTRa_XSP2: Attagene TRANS-FACTORIAL Multi-Species (XSP2) HepG2 Assay for human Thyroid hormone Receptor alpha (TRa) (AID 2283838)
Records with an inconclusive call do not appear. Active and inactive are the calls of the source. How the source made its calls: active means hit-call score of the fitted dose curve at least 0.9, where 1 is the maximum; inconclusive means response in the unintended direction; inactive means score below 0.9.
MEASURE: outcome

> print(dat)
                           smiles.entry  observed.value
1              Oc1ccc(-c2ccccc2)c(Cl)c1        inactive
2   COc1ccc(-c2coc3cc(O)cc(O)c3c2=O)cc1        inactive
3  CC(CCC(=O)O)(c1ccc(O)cc1)c1ccc(O)cc1        inactive
4                   O=C(O)/C=C/c1ccccc1        inactive
5          COc1ccc(C(=O)c2ccccc2)c(O)c1        inactive

* * *

- METHOD NOTES: ATG_DR4_LXR_CIS: Attagene CIS-FACTORIAL HepG2 Assay for human Liver X Receptor (LXR), DR4 submotif (AID 2282929)
- APPLIED CONDITIONS: HepG2 Attagene DR4 cis-reporter, mRNA transcription; actives raise or lower the signal
The source made the active and inactive calls. Rule for the calls: active = hit-call score of the fitted dose curve at least 0.9, where 1 is the maximum; inactive = score below 0.9.
Possible outcomes: active, inactive

> print(dat)
                                    compound       cat
 1  Cc1c(C(=O)c2c[nH]n(C)c2=O)ccc(S(C)(=O)=O)c1C1=NOCC1  inactive
 2        CC(C=O)c1ccccc1 (stereo not given)  inactive
 3  CC1CCC(C(C)(C)S)C(=O)C1 (stereo not given)  inactive
 4                   CCCCCCCCCCCCc1ccc(O)cc1  inactive
 5                   CC(C)c1ccc(O)c(C(C)C)c1  inactive
 6  C=CC(C)(O)CC/C=C(\C)CC (stereo not given)  inactive
 7                            CC(C)=NNC(N)=S  inactive
 8                  C=CC(=O)OCCCCCCOC(=O)C=C    active
 9                Nc1ccc(O)c([N+](=O)[O-])c1  inactive
10  CCCCCC[C@@H](O)C/C=C\CCCCCCCC(=O)OCC(O)CO (stereo not given in full)    active
11                                  C1CNCCN1  inactive
12                   C[Si](C)(C)N[Si](C)(C)C  inactive
13                        CC(C)CCCCCOC(=O)CS  inactive
14                         O=C1CCCCCCCCCCCN1  inactive
15  CC(C)(c1ccccc1)c1ccc(Nc2ccc(C(C)(C)c3ccccc3)cc2)cc1  inactive
16                             CCCC=C(C=O)CC  inactive
17                          CCCCCOC(=O)CCCCC  inactive
18                 c1ccc2sc(SSN3CCOCC3)nc2c1    active
19                        CCN1CN(CC)CN(CC)C1    active
20                 CC1(C)C(=O)N(CO)C(=O)N1CO  inactive
21               O=C(O)c1ccc2c(c1)C(=O)OC2=O  inactive
22                         CCOC(=O)c1ccccc1C  inactive
23    COc1cc(O)c(C(=O)c2ccccc2)cc1S(=O)(=O)O  inactive
24                          COC(=O)c1ccccc1C  inactive
25                C=C[Si](OCCOC)(OCCOC)OCCOC  inactive
26  C=CCOC(=O)c1ccc(C(=O)OCC=C)c(C(=O)OCC=C)c1  inactive
27  CC1=NN(c2ccc(S(=O)(=O)O)cc2)C(=O)C1N=Nc1ccccc1 (stereo not given)  inactive
28                             Cc1c(O)cccc1O  inactive
29                        CCCc1ccc(O)c(OC)c1    active
30          COc1ccc(C(=O)/C(Br)=C\C(=O)O)cc1    active

Where do the numbers come from? From PubChem BioAssay (EPA / NIEHS).
